- System: HepG2 (human liver cancer)
- ASSAY METHOD TEXT: MTT cytotoxicity assay
- Assay type: cell-based
- REPORTED CONDITIONS: Homo sapiens, HepG2, 72 h, mean SD
Under this convention, label 1 denotes IC50 strictly below 40 µM and label 0 denotes IC50 at or above 40 µM.

[
  {
    "COMPOUND": "Cc1ccc(C(C)C)c(OC(=O)CCCN2CCN(c3cc4c(cc3F)c(=O)c(C(=O)O)cn4C3CC3)CC2)c1",
    "GROUP": "label 0"
  }
]

Challenge: Criterion: IC50 strictly below 40 µM. Is it met by `Cc1ccc(C(C)C)c(OCC(=O)N2CCN(c3cc4c(cc3F)c(=O)c(C(=O)O)cn4C3CC3)CC2)c1` ?
Response given: label 1

Challenge: Criterion: IC50 strictly below 40 µM. Is it met by `CC(C)[C@@H]1CC[C@@H](C)C[C@H]1OC(=O)CCCN1CCN(c2cc3c(cc2F)c(=O)c(C(=O)O)cn3C2CC2)CC1` ?
Response given: label 1

Challenge: Criterion: IC50 strictly below 40 µM. Is it met by COc1cccc2c1C(=O)c1c(O)c3c(c(O)c1C2=O)C[C@@](O)(C(=O)CO)C[C@@H]3O[C@H]1C[C@H](N)[C@H](O)[C@H](C)O1 [Doxorubicin, reference compound] ?
Response given: label 1

Data origin, for the record: paper PMC9224473
